Entry source: ChEMBL document CHEMBL1157269

System: SF-268
Test: Growth inhibition of human SF268 cells
Type: functional

smiles.record: COc1cc2c(c(O)c1C)Oc1cccc(O)c1C=C2
GI50: 3.1 µg/mL

smiles.record: COc1c(C)c(O)c2c(c1OC)C=Cc1c(O)cccc1O2
GI50: 3.2 µg/mL

smiles.record: COc1c(C)c(=O)c2oc3cccc(O)c3ccc=2c1=O
GI50: 2.4 µg/mL

smiles.record: COc1cc2c(c(O)c1C)Oc1c(O)ccc(OC)c1C=C2
GI50: 5.8 µg/mL

* * *

Recorded GI50 for the following compounds
System: BXPC-3
Assay: Growth inhibition of human BXPC3 cells
Assay type: functional

smiles.record: COc1cc2c(c(O)c1C)Oc1cccc(O)c1C=C2
GI50 (µg/mL): 4.3
--
smiles.record: COc1cc2c(c(O)c1C)Oc1c(O)ccc(OC)c1C=C2
GI50 (µg/mL): 6.6
--
smiles.record: COc1c(C)c(=O)c2oc3cccc(O)c3ccc=2c1=O
GI50 (µg/mL): 7
--
smiles.record: COc1c(C)c(O)c2c(c1OC)C=Cc1c(O)cccc1O2
GI50 (µg/mL): 3.8
